These entries and their values trace back to ChEMBL document CHEMBL3875210.

A set of molecules tested on Pancreatic triacylglycerol lipase (Sus scrofa) (UniProt P00591), with measured IC50:
Write the number in nM without appending the unit.

Examples from the recorded data:
- SMILES NOTATION: "COc1ccc(-c2cc3c(c(-c4ccc(OC)cc4)c2O)CC[C@@H]2[C@@H]3CC[C@]3(C)C(=O)CC[C@@H]23)cc1"
  IC50, nM: 5280
- SMILES NOTATION: "C[C@]12CC[C@@H]3c4cc(-c5ccccc5F)c5oc6ccccc6c5c4CC[C@H]3[C@@H]1CCC2=O"
  IC50, nM: 930
- SMILES NOTATION: "COc1cc(OC)cc(-c2c(O)ccc3c2CC[C@@H]2[C@@H]3CC[C@]3(C)C(=O)CC[C@@H]23)c1"
  IC50, nM: 59700

Provide Pancreatic triacylglycerol lipase (Sus scrofa) (UniProt P00591) IC50 reading for CC(C)(C)c1ccc(-c2c(O)ccc3c2CC[C@@H]2[C@@H]3CC[C@]3(C)C(=O)CC[C@@H]23)cc1 .
1780

Provide Pancreatic triacylglycerol lipase (Sus scrofa) (UniProt P00591) IC50 reading for C[C@]12CC[C@@H]3c4cc(-c5ccc(C(F)(F)F)cc5)c(O)cc4CC[C@H]3[C@@H]1CCC2=O .
16300

Provide Pancreatic triacylglycerol lipase (Sus scrofa) (UniProt P00591) IC50 reading for C[C@]12CC[C@@H]3c4ccc(O)c(-c5ccccc5)c4CC[C@H]3[C@@H]1CCC2=O .
1540

Provide Pancreatic triacylglycerol lipase (Sus scrofa) (UniProt P00591) IC50 reading for C[C@]12CC[C@@H]3c4ccc(O)c(-c5ccc(C(F)(F)F)cc5)c4CC[C@H]3[C@@H]1CCC2=O .
820

====

// reported IC50 for each item listed
Experiment: Inhibition of pancreatic lipase (unknown origin) assessed as decrease in release of fatty acid from triolein incubated for 30 mins by phenolphthalein-baed titrimetric method
Parameters: species or system Homo sapiens
Conditions: read-out: IC50
Write the number in µM without appending the unit.

- COMPOUND: "Cc1cc2c(c(O)c1-c1c(C)cc3c(c1O)C(=O)c1c(O)cc(O)cc1C3=O)C(=O)c1c(O)cccc1C2=O [CASSIAMIN A]"
  IC50 [µM]: 41.8

Answer with the recorded IC50 of C[C@H]1[C@H](C)CC[C@]2(C(=O)O)CC[C@]3(C)C(=CC[C@@H]4[C@@]5(C)CC[C@H](O)C(C)(C)[C@@H]5CC[C@]43C)[C@H]12 [URSOLIC ACID] only.
15.8

====

Target: Pancreatic triacylglycerol lipase (Sus scrofa) (UniProt P00591)
Assay: Inhibition of porcine pancreatic lipase using p-nitrophenylbutyrate as substrate preincubated for 10 mins followed by substrate addition measured after 20 mins
// reported pIC50 for each item listed
Worth noting: pIC50 values are minus log10 of concentrations stated in mol/L.

Examples from the recorded data:
- SMILES NOTATION: "C[C@]12CC[C@@H]3c4cc(-c5cccc(F)c5)c(O)c(-c5cccc(F)c5)c4CC[C@H]3[C@@H]1CCC2=O"
  pIC50: 5.14
- SMILES NOTATION: "Cc1cc(C)cc(-c2cc3c(c(-c4cc(C)cc(C)c4)c2O)CC[C@@H]2[C@@H]3CC[C@]3(C)C(=O)CC[C@@H]23)c1"
  pIC50: 4.62

Answer with the recorded pIC50 of C[C@]12CC[C@@H]3c4cc(-c5ccc(OC(F)(F)F)cc5)c(O)c(-c5ccc(OC(F)(F)F)cc5)c4CC[C@H]3[C@@H]1CCC2=O only.
5.92

Answer with the recorded pIC50 of CC(C)(C)c1ccc(-c2cc3c(cc2O)CC[C@@H]2[C@@H]3CC[C@]3(C)C(=O)CC[C@@H]23)cc1 only.
5.25

Answer with the recorded pIC50 of C[C@]12CC[C@@H]3c4ccc5oc(=O)c6ccccc6c5c4CC[C@H]3[C@@H]1CCC2=O only.
5.87

Answer with the recorded pIC50 of C[C@]12CC[C@@H]3c4ccc(O)c(-c5cccc(F)c5)c4CC[C@H]3[C@@H]1CCC2=O only.
5.87

Answer with the recorded pIC50 of CCc1ccc(-c2c(O)ccc3c2CC[C@@H]2[C@@H]3CC[C@]3(C)C(=O)CC[C@@H]23)cc1 only.
4.87
